# Tested on: Candida glabrata
# methodNotes: In vitro assay for antifungal activity (MIC80)
# Format: cell-based
# conditionDetails: Nakaseomyces glabratus; concentration at which 80% inhibition of fungus growth occurs; RPMI 1640, alamarBlue, 24 hours, duplicate
parameter: MIC80 (µg/mL)
Kindly provide the numeric value in µg/mL only, without the unit symbol.

| entrySmiles | studySystem | resultUnit | recordedNumber |
| --- | --- | --- | --- |
| C[C@@H](n1cc(-n2ccn(-c3ccc(Cl)cc3)c2=O)cn1)[C@](O)(Cn1cncn1)c1ccc(F)cc1F | Candida glabrata | µg/mL | 4 |

Ask: Look up MIC80 for this compound: C[C@@H](n1cc(CCc2ccc(Cl)cc2)cn1)[C@](O)(Cn1cncn1)c1ccc(F)cc1F
Result: 1

Ask: Look up MIC80 for this compound: C[C@@H](n1cc(N2CCN(c3ccc(Cl)cc3)C2=O)cn1)[C@](O)(Cn1cncn1)c1ccc(F)cc1F
Result: 8

Ask: Look up MIC80 for this compound: C[C@@H](n1cc(/C=C/c2ccc(Cl)cc2)cn1)[C@](O)(Cn1cncn1)c1ccc(F)cc1F
Result: 1

Ask: Look up MIC80 for this compound: C[C@@H](n1cc(/C=C/c2ccc(F)cc2)cn1)[C@](O)(Cn1cncn1)c1ccc(F)cc1F
Result: 2

Ask: Look up MIC80 for this compound: C[C@@H](n1cc(CCc2ccc(F)cc2)cn1)[C@](O)(Cn1cncn1)c1ccc(F)cc1F
Result: 2
